Tested on: Molm-13 cells
assayInfo: Anti-proliferative activity, Molm-13 cells
Assay type: cell-based
measurementContext: Homo sapiens, 168 h; Molm-13 cells, 7-day incubation; read-out: EC50, proliferation
pEC50: −log10 of the molar value.
experimentalReadout: pEC50

Q: Dear colleague, I am looking for the recorded pEC50 of the following molecule: O=C1CCC(N2C(=O)c3ccccc3C2=O)C(=O)N1 (stereo not shown) [Thalidomide, thalidomide, reference compound]
Result: < 4.30

###

Tested on: MV4;11 cells
assayInfo: Anti-proliferative activity, MV4;11 cells
Type: cell-based
measurementContext: MV4; 11 cells; read-out: Anti-proliferative activity EC50, MV4; 11
Recorded EC50 for the following molecules
# unit: µM | format: bare number

# annotated cases, reported EC50 shown
C[C@H]1CCCN1Cc1nc2cc(NC(=O)c3ccc4c(cnn4CCCCCNc4cccc5c4C(=O)N(C4CCC(=O)NC4=O)C5=O)c3)ccc2[nH]1 (some centres unmarked) ... 8.3
C[C@H]1CCCN1Cc1nc2cc(NC(=O)c3ccc4c(cnn4CCCCCCCCCNc4cccc5c4C(=O)N(C4CCC(=O)NC4=O)C5=O)c3)ccc2[nH]1 (some centres unmarked) ... 8.3
C[C@H]1CCCN1Cc1nc2cc(NC(=O)c3ccc4c(cnn4CCCCCCCCCCCNc4cccc5c4C(=O)N(C4CCC(=O)NC4=O)C5=O)c3)ccc2[nH]1 (some centres unmarked) ... 0.94
C[C@H]1CCCN1Cc1nc2cc(NC(=O)c3ccc4c(cnn4CCCCCCCNc4cccc5c4C(=O)N(C4CCC(=O)NC4=O)C5=O)c3)ccc2[nH]1 (some centres unmarked) ... 3.7

Let us examine a further case.
Q: State the recorded EC50 for this entry: C[C@H]1CCCN1Cc1nc2cc(NC(=O)c3ccc4c(cnn4CCCCCCCCCCNc4cccc5c4C(=O)N(C4CCC(=O)NC4=O)C5=O)c3)ccc2[nH]1 (some centres unmarked)
Result: 8.4
